measured-endpoint: melting point

Reference set (3 entries):
molecule	melting point
O=C1c2cccc(O)c2CC12CCCCC2	162 to 164 °C
COC(=O)c1cc(-n2c(Cl)nc(C(F)(F)F)cc2=O)c(F)cc1Cl	89 to 91 °C
C=CCOc1ccc(CC(=O)NCC(=O)O)cc1Cl	115 to 119 °C

Request the reported melting point associated with `CCOc1cc2nc[nH]c(=O)c2cc1OCC`
255 to 257 °C

Request the reported melting point associated with `CCn1c(-c2ccc(OC)c(OC)c2)cc(=O)n(C)c1=O`
110 to 120 °C

Request the reported melting point associated with `CCCCOC(=O)c1c(CBr)nc2cc(OC)c(OC)cc2c1-c1ccc(OC)c(OC)c1`
160 to 161 °C

Request the reported melting point associated with `CCOC(=O)CSc1nc(Cl)cc(Nc2ccc(-c3ccccc3)cc2)n1`
110 to 112 °C

Request the reported melting point associated with `COc1cc(OC)cc(N2CCN(C(=O)Nc3cc(C(C)(C)O)c(C)nc3OC)CC2)c1`
146 to 148 °C

Request the reported melting point associated with `Cc1cc(O)c([N+](=O)[O-])c(=O)n1CC(=O)OCc1ccccc1`
146 to 147 °C

Request the reported melting point associated with `Cc1cnc(C2CCCCC2)n2c1c(CCBr)c1ccccc12`
137 to 139 °C

Request the reported melting point associated with `COCCCNS(=O)(=O)NC(=O)OCc1ccc(OCCOC)cc1Oc1ncc(C(F)(F)F)cc1Cl`
149 to 150 °C

====

The entries below come with measured melting point values attached.

Reference set (4 entries):
compound	melting point
COc1cccc2c(=O)cc(C3CC3C(=O)O)oc12 (stereo unspecified)	193 to 196 °C
O=C(O)c1ccc(-c2cc3ccccc3o2)cc1	292 to 294 °C
O=S1(=O)c2ccccc2Oc2ccccc21	145 to 146 °C
Clc1ccc(I)cc1CBr	94 to 95 °C

Now turn to the next compound.
Request the reported melting point associated with `COC(=O)CCc1nc(-c2ccc(O)cc2)c(-c2ccccc2)o1`
115 to 116 °C

====

measured-endpoint: melting point

compound	melting point
COc1ccc(C2CCN(c3c(C)c(C)c4c(c3C)[C@@H](c3ccc(C)cc3)C(C)(C)O4)CC2)cc1	183 to 185 °C
Cc1nc2sccn2c1C1=NNC(=O)CN1	270 to 273 °C
C#Cc1cnc(OCCC)c(-c2nc3c(CC)n(C4CCN(C(=O)OC(C)(C)C)CC4)nc3c(=O)[nH]2)c1	221 °C

Request the reported melting point associated with `CNC(=O)c1ccc(-c2cnc3[nH]c(=O)n(CC4CCOCC4)c3n2)cc1`
328 to 330 °C

====

measured-endpoint: melting point

molecule	result
CCc1cccc(CC)c1NC(=O)Nc1cnc(C)nc1-c1ccccc1Cl	186 to 187 °C

Request the reported melting point associated with O=C1Nc2ccc(F)cc2C1c1ncnc2nn(C3CCCC3)cc12 (stereo unspecified)
256 to 260 °C

Request the reported melting point associated with `COC(=O)c1c(NC(=O)C(C)(C)C)c(Cl)cc(OC)c1OC`
100 to 102 °C

Request the reported melting point associated with CC1(C)C2CCC3(C2)C1c1ncncc1CC3(C)C (stereo unspecified)
44 to 45 °C

====

measured-endpoint: melting point

Reference set (3 entries):
molecular-string	melting point
O=C(O)c1cn(-c2ccc(F)cc2)c(C=Cc2ccncc2)cc1=O	205 to 215 °C
COC(=O)c1cccc(-c2ccncn2)c1	69 to 71 °C
CS(=O)(=O)c1ccc(-c2cnn(-c3ccc(F)c(F)c3)c(=O)c2Oc2ccc(Cl)cc2)cc1	192 to 194 °C

Request the reported melting point associated with `O=Cc1ccccc1-c1noc2cc(Cl)ccc12`
116 to 117 °C

Request the reported melting point associated with `COc1cn(Cc2ccc(OC)c(OC)c2)c(=O)o1`
99.5 to 102 °C
